- Subject Of Test: T1, CRBN, Q96SW2
- T1 chain: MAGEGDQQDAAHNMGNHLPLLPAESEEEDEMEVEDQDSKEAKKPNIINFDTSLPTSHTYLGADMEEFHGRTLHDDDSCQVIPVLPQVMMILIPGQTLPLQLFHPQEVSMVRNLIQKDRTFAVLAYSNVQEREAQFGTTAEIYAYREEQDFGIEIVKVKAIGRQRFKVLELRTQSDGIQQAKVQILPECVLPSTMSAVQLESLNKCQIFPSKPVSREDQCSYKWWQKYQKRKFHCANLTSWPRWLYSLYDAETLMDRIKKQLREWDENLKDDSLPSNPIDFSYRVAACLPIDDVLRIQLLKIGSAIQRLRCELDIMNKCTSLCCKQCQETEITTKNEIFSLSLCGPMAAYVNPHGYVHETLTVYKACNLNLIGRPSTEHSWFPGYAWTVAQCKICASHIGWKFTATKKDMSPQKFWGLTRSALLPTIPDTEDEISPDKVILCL
- Assay Method Text: log2 fold change of degron read counts, EGFP-low vs EGFP+ sorted cells (limma voom), compound-induced degradation; higher = more compound-induced degradation of the degron-EGFP fusion; degrons are variants of IKZF1/3 zinc finger 2; compound dose not given here;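 also: pooled lentiviral library of zinc finger degron-EGFP fusions in mCherry-positive Jurkat cells, FACS-sorted after compound exposure, with degron abundance counted by next-generation sequencing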
- Test Conditions: Jurkat; 18 h; compound: compound 19 (5-tert-butyl-thalidomide)
Whole data set: some 8,300 sequences, median “log2 fold change of degron read counts, EGFP-low vs EGFP+ sorted cells (limma voom), compound-induced degradation” near -1.1, cut for the highest 2% near 3.2. This excerpt belongs to a sample that is enriched for the highest values.
Below: a set of entries, each annotated with reported log2 fold change of degron read counts.
Measurement Name: log2 fold change of degron read counts

Seq Text | Observed Measurement
FLCEVCGAYFTQKGNLLRHIKL [46F_47L_49E_50V_52G_53A_54Y_55F_67L_, Q9UKT9] | -0.235
FCCEICGHNFTQKGNLLRHIKL [46F_47C_49E_50I_52G_53H_54N_55F_67L_, Q9UKT9] | -3.4
FRCPICGHVFTQKGNLLRHIKL [46F_47R_49P_50I_52G_53H_54V_55F_67L_, Q9UKT9] | -2.24
FYCPQCGAFFTQKGNLLRHIKL [46F_47Y_49P_50Q_52G_53A_54F_55F_67L_, Q9UKT9] | 0.239
